target_or_system: Bcl-2 protein (Recombinant Human Bcl-2 Protein) (Homo sapiens, UniProt P10415)
Construct: purchased Novus NBP2-34889
Sequence (P10415 whole entry): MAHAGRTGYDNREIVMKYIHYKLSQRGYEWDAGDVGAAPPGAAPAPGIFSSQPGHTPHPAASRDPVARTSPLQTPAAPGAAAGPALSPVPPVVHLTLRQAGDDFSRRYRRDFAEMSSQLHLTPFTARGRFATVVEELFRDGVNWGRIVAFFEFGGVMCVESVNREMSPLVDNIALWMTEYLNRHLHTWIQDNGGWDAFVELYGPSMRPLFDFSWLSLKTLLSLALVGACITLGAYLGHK
experiment_description: Binding evaluation of mixture library compounds to Bcl-2 using AS-MS (affinity selection mass spectrometry)
measurement_conditions: n = 1
reported_property: ASMS ratio (%)
The reply should contain only the number, in %.

Example entries begin here.
>>> print(df.to_string())
                            compound_string                          target_or_system  reported_property  value_observed
0  CCOc1cccc(-c2ccc(CN3CCN(c4ccc(C(=O)NS(=O)(=O)c5ccc(NCCSc6ccccc6)c(C(F)(F)F)c5)cc4)CC3)cc2F)c1  Bcl-2 protein (Recombinant Human Bcl-2 Protein) (Homo sapiens, UniProt P10415)     ASMS ratio (%)            12.7
1  CCOc1cccc(-c2cc(C(=O)N3CCN(c4ccc(C(=O)NS(=O)(=O)c5ccc(NCCSc6ccccc6)c(C(F)(F)F)c5)nn4)CC3)cc(C(C)(C)C)c2)c1  Bcl-2 protein (Recombinant Human Bcl-2 Protein) (Homo sapiens, UniProt P10415)     ASMS ratio (%)             9.7

Please find the next compound below.
Name the value of ASMS ratio (%) reported for "CCOc1cccc(-c2ccc(CN3CCN(c4ccc(C(=O)NS(=O)(=O)CCC(F)(F)F)cc4)CC3)c(CC)c2)c1" when tested on Bcl-2 protein (Recombinant Human Bcl-2 Protein) (Homo sapiens, UniProt P10415).
0.0

====

target_or_system: Bcl-2 protein (Recombinant Human Bcl-2 Protein) (Homo sapiens)
Construct: purchased Novus NBP2-34889
experiment_description: Binding evaluation of mixture library compounds to Bcl-2 using AS-MS (affinity selection mass spectrometry)
measurement_conditions: AS-MS, mixture library, Bcl-2; replicate n = 2; ASMS Ratio(%)=(A−C)/B×100
reported_property: ASMS ratio (%) n = 2
The reply should contain only the number, in %.

compound	ASMS ratio (%) n = 2
CCOc1cccc(-c2ccc(CN3CCN(c4ccc(C(=O)N(CC)CC)nn4)CC3)cc2C)c1	0.0
CCOc1cncc(-c2ccc(C(=O)N3CCN(c4ccc(C(=O)NS(=O)(=O)CC56CC7CC(CC(C7)C5)C6)nn4)CC3)c3ccccc23)c1	2.2
CCOc1cccc(C#Cc2ccccc2CN2CCN(c3ccc(C(=O)NS(=O)(=O)CC45CC6CC(CC(C6)C4)C5)cc3)CC2)c1	−4.6
CCOc1cncc(-c2cc(CN3CCN(c4ccc(C(=O)NS(=O)(=O)CC56CC7CC(CC(C7)C5)C6)nn4)CC3)cc(OC(C)C)c2)c1	11.9
CCOc1cncc(-c2ccc(C(C)N3CCN(c4ccc(C(=O)NS(=O)(=O)c5ccc(NCCSc6ccccc6)c([N+](=O)[O-])c5)cc4)CC3)c(F)c2)c1 (stereo not drawn)	10.7

Read off the recorded ASMS ratio (%) n = 2 for "CCOc1cccc(C#Cc2cc(C(=O)N3CCN(c4ccc(C(=O)NS(=O)(=O)c5ccc(NCCSc6ccccc6)c([N+](=O)[O-])c5)nn4)CC3)cc(C(F)(F)F)c2)c1"
14.1

Read off the recorded ASMS ratio (%) n = 2 for "CCOc1cncc(-c2cc(OC)c(CN3CCN(c4ccc(C(=O)NS(=O)(=O)CC56CC7CC(CC(C7)C5)C6)cc4)CC3)c(OC)c2)c1"
0.0

Read off the recorded ASMS ratio (%) n = 2 for "CCOc1cccc(-c2cc(C(=O)N3CCN(c4ccc(C(=O)NS(=O)(=O)c5ccc(NCCSc6ccccc6)c([N+](=O)[O-])c5)cc4)CC3)cc(C(C)(C)C)c2)c1"
−1.5

Read off the recorded ASMS ratio (%) n = 2 for "CCOc1cccc(C#Cc2ccccc2C(=O)N2CCN(c3ccc(C(=O)NS(=O)(=O)CC45CC6CC(CC(C6)C4)C5)nn3)CC2)c1"
0.0

Read off the recorded ASMS ratio (%) n = 2 for "CCOc1cncc(-c2ccc(C(=O)N3CCN(c4ccc(C(=O)NS(=O)(=O)CC56CC7CC(CC(C7)C5)C6)nn4)CC3)cc2C)c1"
0.0

Read off the recorded ASMS ratio (%) n = 2 for "CCOc1cccc(-c2ccc(CN3CCN(c4ccc(C(=O)NS(=O)(=O)CC56CC7CC(CC(C7)C5)C6)cc4)CC3)c3ccccc23)c1"
−2.9

Read off the recorded ASMS ratio (%) n = 2 for "CCOc1cncc(-c2cnn(-c3cc(C(=O)N4CCN(c5ccc(C(=O)NS(C)(=O)=O)nn5)CC4)cc(C(F)(F)F)c3)c2)c1"
0.0
